- TEST_TARGET: PHF19 Tudor domain (residues 49-115), N-terminal His tag
- ASSAY_METHOD_TEXT: ITC
Starred links: 1 amine or outer side, 2 acyl side, 3 side chain; linkers in the order of their positions; H or OH if unused. Non-standard residues stand in square brackets, D forms with d. No end group written: not given here. X2 = N6‑isopropyl‑N6‑phenethyl‑lysine, CC(C)N(CCCC[C@H](N[*:1])C(=O)[*:2])CCc1ccccc1
REPORTED_METRIC: Kd (nM)
Answers are plain numbers, in nM.

Lookup: Can you look up the measured Kd of GGV[X2]KPLR-NH2 [UNC6641] for me?
Found: 2100
